- Tested on: Respiratory syncytial virus
- measurementProtocol: Antiviral activity against RSV assessed as inhibition of viral replication by cell based assay
- Assay type: functional, organism-based
- conditionSummary: human respiratory syncytial virus
measure: EC50

Completed entries (count: 6):
# smiles, systemName, reading
measured = [
    ("COCCCn1c(CN2C(=O)/C(=N/OCCCN(C)C)c3ccccc32)nc2ccccc21", "Respiratory syncytial virus", "240 nM"),
    ("COCCCn1c(CN2C(=O)/C(=N/OCc3ccc(C(=O)N(C)C)cc3)c3ccccc32)nc2ccccc21", "Respiratory syncytial virus", "30 nM"),
    ("CS(=O)(=O)c1ccc(CO/N=C2/C(=O)N(Cc3nc4ccccc4n3CCCC#N)c3ccncc32)cc1", "Respiratory syncytial virus", "10200 nM"),
    ("CS(=O)(=O)CCCn1c(CN2C(=O)/C(=N/OCc3ccccn3)c3ccncc32)nc2ccccc21", "Respiratory syncytial virus", "29 nM"),
    ("CCC(CC)O/N=C1/C(=O)N(Cc2nc3ccccc3n2CCCOC)c2ccccc21", "Respiratory syncytial virus", "935 nM"),
    ("CC(C)CCn1c(CN2C(=O)/C(=N/OCc3ccccc3)c3ccccc32)nc2ccccc21", "Respiratory syncytial virus", "202 nM"),
]

Turning now to a further record.
// query Which value of EC50 has been reported for CCCCCO/N=C1/C(=O)N(Cc2nc3ccccc3n2CCCOC)c2ccccc21 in the records?
// result 188 nM
